Target: PTB1 (human, UniProt P26599-1 1-531)
Experiment: EMSA
Measured quantity: pKd
One number for each entry, as −log10 of the molar value.

[ask] What value of measured pKd is listed for c-src 5' SL + N1 (78-mer, RNA78) (structured_RNA) RNA: GGCAACCCUCUCCUUCUCUCUGCUUCUCUCUCGCUGGCCCUUAGGAGGAAGGUGCCAUCGAUGUCAGGUGUGUACCGAGG ?
[reply] 7.10
